# Target Under Test: Sentrin-specific protease 6 (Homo sapiens, UniProt Q9GZR1);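 further: Luminescence-based dose-response confirmatory assay of SENP6 inhibition, following up an ultra-high-throughput screen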
# Sequence (Q9GZR1 whole entry): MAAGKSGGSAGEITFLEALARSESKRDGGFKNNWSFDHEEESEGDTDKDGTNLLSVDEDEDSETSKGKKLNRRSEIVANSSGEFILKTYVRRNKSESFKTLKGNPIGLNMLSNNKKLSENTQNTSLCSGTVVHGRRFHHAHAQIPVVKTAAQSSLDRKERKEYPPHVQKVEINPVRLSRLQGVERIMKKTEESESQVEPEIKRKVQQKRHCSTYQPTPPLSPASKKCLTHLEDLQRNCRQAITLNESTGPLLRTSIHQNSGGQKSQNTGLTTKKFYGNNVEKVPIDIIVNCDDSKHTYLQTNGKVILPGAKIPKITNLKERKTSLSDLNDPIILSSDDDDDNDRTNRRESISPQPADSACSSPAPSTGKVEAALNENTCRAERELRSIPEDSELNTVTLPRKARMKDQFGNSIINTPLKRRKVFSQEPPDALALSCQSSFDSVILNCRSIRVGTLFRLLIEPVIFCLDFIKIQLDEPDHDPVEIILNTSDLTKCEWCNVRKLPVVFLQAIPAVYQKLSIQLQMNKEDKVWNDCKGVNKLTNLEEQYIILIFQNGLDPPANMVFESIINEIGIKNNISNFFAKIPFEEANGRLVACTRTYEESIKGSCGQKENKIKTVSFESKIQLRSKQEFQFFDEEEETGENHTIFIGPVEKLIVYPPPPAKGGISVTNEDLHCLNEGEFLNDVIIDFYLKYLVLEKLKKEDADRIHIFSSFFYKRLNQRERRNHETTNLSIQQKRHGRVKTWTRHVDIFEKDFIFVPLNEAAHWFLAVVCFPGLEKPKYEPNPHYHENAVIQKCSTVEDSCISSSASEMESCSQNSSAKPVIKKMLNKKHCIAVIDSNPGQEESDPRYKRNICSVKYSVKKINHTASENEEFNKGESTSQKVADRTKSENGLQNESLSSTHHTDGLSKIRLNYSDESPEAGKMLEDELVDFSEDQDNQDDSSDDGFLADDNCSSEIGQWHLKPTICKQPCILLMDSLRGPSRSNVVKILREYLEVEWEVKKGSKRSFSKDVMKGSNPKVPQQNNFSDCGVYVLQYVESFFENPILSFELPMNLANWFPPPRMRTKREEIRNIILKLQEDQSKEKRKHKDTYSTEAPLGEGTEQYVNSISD
# Type: functional
Activity calls are given as the source filed them.
Outcomes: active, inactive

>  <Compound>
CCC(C)NC(=O)c1c(N)n(CCCOC)c2nc3ccccc3nc12 (stereo not drawn)

>  <Assigned Label>
active

$$$$
>  <Compound>
N=C1/C(=N\Nc2ccccc2F)C(=O)NN1c1ccccc1

>  <Assigned Label>
active

$$$$
>  <Compound>
C=C(C)c1sc(-c2ccc(Cl)cc2)nc1C

>  <Assigned Label>
active

$$$$
>  <Compound>
Nc1nc2ccccc2n1/N=C/c1ccc(Br)cc1

>  <Assigned Label>
active

$$$$
>  <Compound>
COc1ccc(-c2cc3ccccc3[nH]2)cc1

>  <Assigned Label>
active

$$$$
>  <Compound>
NC(=NOC(=O)c1ccc(Cl)cc1Cl)c1ccc(Cl)cc1

>  <Assigned Label>
inactive

$$$$
>  <Compound>
Cc1ccccc1-c1nc(-c2ccc(Br)o2)no1

>  <Assigned Label>
active

$$$$
>  <Compound>
Cc1ccc(O)c(-c2cc(-c3ccccc3F)[nH]n2)c1

>  <Assigned Label>
active

$$$$

----------
# Target Under Test: Peroxisome proliferator-activated receptor gamma/Nuclear receptor coactivator 1 (Homo sapiens, UniProt P37231);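 further: agonist potency as compounds enhance coactivator SRC-1 recruitment to PPARgamma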
# Sequence (P37231 whole entry): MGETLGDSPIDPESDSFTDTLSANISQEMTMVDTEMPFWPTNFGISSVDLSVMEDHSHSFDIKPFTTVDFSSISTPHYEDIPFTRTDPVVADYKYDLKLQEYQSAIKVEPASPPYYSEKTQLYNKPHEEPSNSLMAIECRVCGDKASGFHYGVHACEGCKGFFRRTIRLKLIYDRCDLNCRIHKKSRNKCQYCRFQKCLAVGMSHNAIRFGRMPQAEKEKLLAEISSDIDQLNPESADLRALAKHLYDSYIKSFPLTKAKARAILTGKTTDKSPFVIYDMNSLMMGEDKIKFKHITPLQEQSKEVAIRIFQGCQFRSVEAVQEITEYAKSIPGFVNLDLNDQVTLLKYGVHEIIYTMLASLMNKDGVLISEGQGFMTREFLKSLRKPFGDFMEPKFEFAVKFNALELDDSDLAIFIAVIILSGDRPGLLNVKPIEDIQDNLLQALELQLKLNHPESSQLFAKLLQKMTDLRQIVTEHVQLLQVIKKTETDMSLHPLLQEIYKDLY
# Sequence (Q15788 whole entry, further chain): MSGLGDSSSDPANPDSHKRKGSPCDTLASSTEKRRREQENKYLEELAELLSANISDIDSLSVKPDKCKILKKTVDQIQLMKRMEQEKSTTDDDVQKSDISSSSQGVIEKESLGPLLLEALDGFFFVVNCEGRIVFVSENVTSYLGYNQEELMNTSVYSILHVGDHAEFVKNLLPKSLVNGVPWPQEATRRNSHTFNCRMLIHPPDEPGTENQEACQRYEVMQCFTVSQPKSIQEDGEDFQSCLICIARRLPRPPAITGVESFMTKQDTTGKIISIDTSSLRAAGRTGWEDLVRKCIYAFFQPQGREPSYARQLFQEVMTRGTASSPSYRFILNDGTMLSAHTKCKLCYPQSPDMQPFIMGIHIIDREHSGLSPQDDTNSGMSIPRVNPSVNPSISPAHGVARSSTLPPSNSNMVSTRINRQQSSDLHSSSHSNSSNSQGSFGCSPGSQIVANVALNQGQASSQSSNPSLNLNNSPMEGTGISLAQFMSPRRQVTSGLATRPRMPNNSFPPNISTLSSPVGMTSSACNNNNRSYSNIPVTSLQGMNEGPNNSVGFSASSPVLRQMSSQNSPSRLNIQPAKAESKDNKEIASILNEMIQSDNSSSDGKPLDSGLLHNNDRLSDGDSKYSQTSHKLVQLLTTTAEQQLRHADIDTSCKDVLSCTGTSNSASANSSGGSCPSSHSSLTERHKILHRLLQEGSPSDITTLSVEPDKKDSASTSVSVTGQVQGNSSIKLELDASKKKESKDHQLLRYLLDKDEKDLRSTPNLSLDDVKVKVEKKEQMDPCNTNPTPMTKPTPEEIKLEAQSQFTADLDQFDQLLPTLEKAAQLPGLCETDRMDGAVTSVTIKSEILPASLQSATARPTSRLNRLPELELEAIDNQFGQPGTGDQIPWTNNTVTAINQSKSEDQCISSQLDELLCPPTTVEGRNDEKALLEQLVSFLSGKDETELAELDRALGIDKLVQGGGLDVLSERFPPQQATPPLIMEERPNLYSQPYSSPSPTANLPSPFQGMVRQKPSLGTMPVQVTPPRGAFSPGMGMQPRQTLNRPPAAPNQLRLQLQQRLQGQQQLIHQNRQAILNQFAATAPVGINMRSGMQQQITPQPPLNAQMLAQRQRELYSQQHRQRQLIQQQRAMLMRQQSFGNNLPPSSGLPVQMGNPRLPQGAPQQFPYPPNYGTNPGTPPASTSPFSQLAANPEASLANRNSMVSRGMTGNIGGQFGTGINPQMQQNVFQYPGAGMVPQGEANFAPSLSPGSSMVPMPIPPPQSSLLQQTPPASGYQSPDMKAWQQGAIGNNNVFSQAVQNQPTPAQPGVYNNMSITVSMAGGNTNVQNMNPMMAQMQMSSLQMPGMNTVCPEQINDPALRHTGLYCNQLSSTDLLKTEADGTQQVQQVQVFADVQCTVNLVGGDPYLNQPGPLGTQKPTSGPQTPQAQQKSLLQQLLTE
# Assay type: functional
Reported EC50 values follow for various compounds
Observable: EC50

>  <Compound>
Cc1ccc(NC(=O)CSc2nnc(-c3ccc(S(=O)(=O)N4CCCC4)cc3)o2)cc1C

>  <Experimental Result>
81.2 µM (not active)

$$$$
>  <Compound>
OC(C#CCN1CCCC1)(c1ccccc1)c1cccc(F)c1 (centres undefined)

>  <Experimental Result>
> 79.4 µM (not active)

$$$$
>  <Compound>
O=c1oc2ccccc2cc1-c1cn2ccccc2n1

>  <Experimental Result>
> 79.4 µM (not active)

$$$$
>  <Compound>
CC(C)N1CCN(Cc2ccc(Oc3ncccn3)cc2)CC1CCO (centres undefined)

>  <Experimental Result>
> 79.4 µM (not active)

$$$$

----------
# Target Under Test: Genome polyprotein (dengue virus type 2)
# Sequence (P29990 2492-3391 limits assumed): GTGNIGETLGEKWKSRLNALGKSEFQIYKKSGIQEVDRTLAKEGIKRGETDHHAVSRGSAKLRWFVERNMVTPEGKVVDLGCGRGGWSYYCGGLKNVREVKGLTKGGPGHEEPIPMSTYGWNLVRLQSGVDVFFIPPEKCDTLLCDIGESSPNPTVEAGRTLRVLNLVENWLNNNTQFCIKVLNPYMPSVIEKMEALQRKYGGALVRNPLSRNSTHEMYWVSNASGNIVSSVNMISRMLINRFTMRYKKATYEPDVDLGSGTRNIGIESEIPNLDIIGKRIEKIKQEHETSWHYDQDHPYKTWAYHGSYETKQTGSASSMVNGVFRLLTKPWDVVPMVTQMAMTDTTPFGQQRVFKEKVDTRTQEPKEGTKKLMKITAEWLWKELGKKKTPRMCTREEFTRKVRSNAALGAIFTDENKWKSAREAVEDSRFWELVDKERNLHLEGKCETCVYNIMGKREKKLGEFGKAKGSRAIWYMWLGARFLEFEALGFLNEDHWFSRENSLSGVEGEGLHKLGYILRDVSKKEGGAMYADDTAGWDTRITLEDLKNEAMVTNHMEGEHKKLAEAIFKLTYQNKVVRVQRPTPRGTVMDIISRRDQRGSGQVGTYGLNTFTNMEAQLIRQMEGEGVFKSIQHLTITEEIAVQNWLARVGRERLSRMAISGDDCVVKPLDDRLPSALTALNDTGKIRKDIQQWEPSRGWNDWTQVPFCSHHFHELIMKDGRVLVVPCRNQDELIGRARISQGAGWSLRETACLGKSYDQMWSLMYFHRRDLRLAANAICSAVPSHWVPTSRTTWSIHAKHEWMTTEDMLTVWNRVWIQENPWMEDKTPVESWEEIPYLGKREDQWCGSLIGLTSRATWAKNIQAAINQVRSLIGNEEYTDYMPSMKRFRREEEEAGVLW
# Run Description: Dengue-2 NS5 methyltransferase inhibitors, primary screen, biochemical, confirmation dose response (AID 588689)
# Assay type: functional
The source made the active and inactive calls.
Reported IC50 values follow for various molecules
Observable: IC50

>  <Molecule>
O=C1C(C2=C(O)c3ccccc3C2=O)=Nc2ccccc21

>  <Experimental Result>
56.9 µM (active)

$$$$
>  <Molecule>
Cn1c(/N=C/c2c(O)ccc3ccccc23)nc2ccccc21

>  <Experimental Result>
9.6 µM (active)

$$$$
>  <Molecule>
O=C1NC(=O)C(=Cc2cc3c(cc2[N+](=O)[O-])OCO3)C(=O)N1

>  <Experimental Result>
21.4 µM (active)

$$$$
>  <Molecule>
COc1cc(/C=C2\C(=O)NC(=O)N(c3ccccc3)C2=O)c([N+](=O)[O-])cc1OC

>  <Experimental Result>
17.3 µM (active)

$$$$
>  <Molecule>
COC(=O)c1c(Cl)c2n3ccccc3c(C)c(-c3ccccc3)c-2c1C(=O)OC

>  <Experimental Result>
74.5 µM (active)

$$$$
>  <Molecule>
O=C1OC(c2ccccc2)C(C(=O)c2ccc(Cl)cc2)=C1O (configuration not stated)

>  <Experimental Result>
83.4 µM (active)

$$$$
>  <Molecule>
C#CCOc1c(Cl)cc(/C=C2/C(=O)ON=C2C)cc1OCC

>  <Experimental Result>
> 100 µM (active)

$$$$
>  <Molecule>
O=C1NC(=O)C(=Cc2csc3ccccc23)C(=O)N1

>  <Experimental Result>
26.9 µM (active)

$$$$
>  <Molecule>
CN1CC[C@@]2(C)c3cc(O)ccc3N(C)[C@@H]12

>  <Experimental Result>
22.4 µM (active)

$$$$
>  <Molecule>
Cc1ccccc1C(=O)Nc1cccc(C(=O)N/N=C/c2cc(Cl)cc([N+](=O)[O-])c2O)c1

>  <Experimental Result>
> 100 µM (active)

$$$$
>  <Molecule>
COC(=O)C1=C(C(=O)OC)C(c2ccccc2O)c2sc(O)nc2S1 (configuration not stated)

>  <Experimental Result>
93.2 µM (active)

$$$$
>  <Molecule>
CC1=NN(C(N)=S)C(=O)C1N=Nc1c(Br)cc(Br)cc1Br (configuration not stated)

>  <Experimental Result>
43.5 µM (active)

$$$$

----------
# Target Under Test: Streptokinase A (Streptococcus pyogenes serotype M1, UniProt P10520)
# Sequence (P10520 whole entry): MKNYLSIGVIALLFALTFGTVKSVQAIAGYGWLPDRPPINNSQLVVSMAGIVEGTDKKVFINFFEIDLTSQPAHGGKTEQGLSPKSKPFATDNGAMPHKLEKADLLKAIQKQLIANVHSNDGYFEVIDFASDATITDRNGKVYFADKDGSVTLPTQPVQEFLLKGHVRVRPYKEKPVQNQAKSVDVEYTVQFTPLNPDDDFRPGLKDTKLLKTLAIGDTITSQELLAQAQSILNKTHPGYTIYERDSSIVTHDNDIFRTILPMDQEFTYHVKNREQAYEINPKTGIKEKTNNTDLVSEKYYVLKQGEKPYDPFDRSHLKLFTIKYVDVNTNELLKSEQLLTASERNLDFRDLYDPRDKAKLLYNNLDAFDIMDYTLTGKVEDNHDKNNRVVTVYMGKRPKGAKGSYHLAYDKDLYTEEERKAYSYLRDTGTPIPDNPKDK
# Run Description: S. pyogenes streptokinase expression inhibitors, potency, dose response, plasminogen activation absorbance, OD405 (AID 1914);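 further: secreted streptokinase activity via plasminogen activation per viability signal from cell pellet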
# Type: functional, Streptococcus pyogenes M1 GAS
Calls of active or inactive are those of the source.
Observable: EC50

>  <Molecule>
O=C(COc1ccccc1)Nc1cccc(-c2nc3ccccc3[nH]2)c1

>  <Target Under Test>
Streptokinase A (Streptococcus pyogenes serotype M1, UniProt P10520)

>  <Observable>
EC50

>  <Experimental Result>
> 150 µM (not active)

$$$$
>  <Molecule>
C/C(=N\N=C(/N)SC1CC(=O)N(c2ccc(Br)cc2)C1=O)c1cccs1 (configuration not stated)

>  <Target Under Test>
Streptokinase A (Streptococcus pyogenes serotype M1, UniProt P10520)

>  <Observable>
EC50

>  <Experimental Result>
9.08 µM (active)

$$$$
>  <Molecule>
Cc1ccc(C)c(-c2csc(N)c2C(=O)OC(C)C)c1

>  <Target Under Test>
Streptokinase A (Streptococcus pyogenes serotype M1, UniProt P10520)

>  <Observable>
EC50

>  <Experimental Result>
17 µM (active)

$$$$
>  <Molecule>
COc1ccc(C2c3ccsc3CCN2C(=O)C(C)(C)C)cc1 (configuration not stated)

>  <Target Under Test>
Streptokinase A (Streptococcus pyogenes serotype M1, UniProt P10520)

>  <Observable>
EC50

>  <Experimental Result>
> 150 µM (not active)

$$$$
>  <Molecule>
COc1ccccc1NC(=O)NCCCCc1ccccc1

>  <Target Under Test>
Streptokinase A (Streptococcus pyogenes serotype M1, UniProt P10520)

>  <Observable>
EC50

>  <Experimental Result>
> 150 µM (not active)

$$$$
>  <Molecule>
C/C(=N\NC(=O)CSc1[nH]c(C)nc1[N+](=O)[O-])c1ccc(F)cc1

>  <Target Under Test>
Streptokinase A (Streptococcus pyogenes serotype M1, UniProt P10520)

>  <Observable>
EC50

>  <Experimental Result>
> 150 µM (not active)

$$$$
>  <Molecule>
COc1ccc(-c2oc3ncn(Cc4ccco4)c(=N)c3c2-c2ccc(OC)cc2)cc1

>  <Target Under Test>
Streptokinase A (Streptococcus pyogenes serotype M1, UniProt P10520)

>  <Observable>
EC50

>  <Experimental Result>
14.8 µM (active)

$$$$

----------
# Target Under Test: Short transient receptor potential channel 4 (Mus musculus)
# Sequence (Q9QUQ5 whole entry): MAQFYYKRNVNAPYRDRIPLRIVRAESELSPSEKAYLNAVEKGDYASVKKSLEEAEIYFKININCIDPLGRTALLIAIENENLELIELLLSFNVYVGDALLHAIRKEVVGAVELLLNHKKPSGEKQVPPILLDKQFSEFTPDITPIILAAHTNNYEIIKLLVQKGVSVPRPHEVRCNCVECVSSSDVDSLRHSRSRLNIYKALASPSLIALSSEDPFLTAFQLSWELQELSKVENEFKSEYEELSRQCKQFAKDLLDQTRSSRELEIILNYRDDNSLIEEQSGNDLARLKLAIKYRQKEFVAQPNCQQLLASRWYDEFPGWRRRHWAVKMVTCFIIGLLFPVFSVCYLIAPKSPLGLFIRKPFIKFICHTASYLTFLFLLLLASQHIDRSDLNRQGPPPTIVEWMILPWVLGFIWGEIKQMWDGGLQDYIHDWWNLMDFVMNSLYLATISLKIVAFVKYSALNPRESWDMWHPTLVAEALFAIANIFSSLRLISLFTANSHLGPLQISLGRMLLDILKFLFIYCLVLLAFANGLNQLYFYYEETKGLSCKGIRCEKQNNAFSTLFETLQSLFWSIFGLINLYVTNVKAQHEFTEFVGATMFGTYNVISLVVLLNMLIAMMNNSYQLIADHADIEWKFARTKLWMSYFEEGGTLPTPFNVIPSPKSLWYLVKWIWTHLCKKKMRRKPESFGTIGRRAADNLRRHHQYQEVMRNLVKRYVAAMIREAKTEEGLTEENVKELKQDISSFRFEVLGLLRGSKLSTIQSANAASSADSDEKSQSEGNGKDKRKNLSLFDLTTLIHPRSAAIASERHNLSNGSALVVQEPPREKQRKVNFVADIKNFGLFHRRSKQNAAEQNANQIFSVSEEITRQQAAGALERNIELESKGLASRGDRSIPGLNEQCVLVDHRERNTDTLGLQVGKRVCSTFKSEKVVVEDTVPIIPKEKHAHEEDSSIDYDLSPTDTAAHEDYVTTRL
# Run Description: mouse TRPC4 channel activators, dose response, cell-based, HEK293 TRPC4/mu-opioid, Fluo-4 calcium (AID 434937)
# Format: functional
The source made the active and inactive calls.

>  <Molecule>
COc1ccc(C(CNC(=O)C2CCN(S(=O)(=O)c3ccc(F)cc3)CC2)N(C)C)cc1 (stereo unspecified)

>  <EC50>
2.11 µM (active)

$$$$
>  <Molecule>
COc1ccc(C(CNC(=O)c2cc(C)on2)N(C)C)cc1 (stereo unspecified)

>  <EC50>
0.376 µM (active)

$$$$
>  <Molecule>
O=C(NC(=S)NNC(=O)c1ccco1)c1ccc(Br)cc1

>  <EC50>
5.96 µM (active)

$$$$
>  <Molecule>
COc1ccc(C(CCNCc2ccc(N(C)C)cc2)c2ccccc2OC)cc1 (stereo unspecified)

>  <EC50>
10.6 µM (active)

$$$$
>  <Molecule>
O=c1c(Cc2ccc(F)cc2)c(O)ccn1CCc1c[nH]cn1

>  <EC50>
5.31 µM (active)

$$$$
>  <Molecule>
CC(=O)Nc1ccc(CN2CCCC(C(=O)c3ccc(C(F)(F)F)cc3)C2)cc1 (stereo unspecified)

>  <EC50>
2.66 µM (active)

$$$$
